- Protocol text: in vitro
- Measurement setup: human, liver microsomes
Lab note: compare microsomal CLint against 10 µL/min/mg. Equal or greater, write 1. Smaller, write 0.

Task: Item C[C@H](CO)Nc1nc(SCc2cccc(F)c2F)nc2nc(N)cnc12 with microsomal CLint of 10 µL/min/mg or above?
Result: 1

Task: Item CCN(C(=O)Cc1ccc(S(C)(=O)=O)cc1)C1CCN(CCC(c2ccccc2)C2CCN(Cc3ccccc3)CC2)CC1 (stereo not given) with microsomal CLint of 10 µL/min/mg or above?
Result: 1

Task: Item COc1ccccc1C(=O)Nc1ccc(C)c(-n2cnc3ccc(N4CCN(C)CC4)cc3c2=O)c1 with microsomal CLint of 10 µL/min/mg or above?
Result: 0

Task: Item Cc1cc(N2CCC[C@@H]2C(=O)NCCc2ccc3c(c2)OCO3)nc(-n2ccnc2)n1 with microsomal CLint of 10 µL/min/mg or above?
Result: 1

Task: Item COC(=O)C1=C(C)NC2=C(C(=O)CC(C)(C)C2)C1c1ccc(-c2ccc(C(F)(F)F)cc2)cc1 (stereo not given) with microsomal CLint of 10 µL/min/mg or above?
Result: 0

Task: Item COc1ccc(-c2nc3c(NCCCN(C)C(=O)C4CCC4)c(Br)cnc3[nH]2)cc1 with microsomal CLint of 10 µL/min/mg or above?
Result: 1

Task: Item O=C(NCC12CC3CC(CC(C3)C1)C2)c1ccccc1Cl with microsomal CLint of 10 µL/min/mg or above?
Result: 1

Task: Item O=C(NCC12CC3CC(CC(C3)C1)C2)c1cc(OCCCNCCCO)ccc1Cl with microsomal CLint of 10 µL/min/mg or above?
Result: 1

Task: Item Cc1ccc2c(c1)c(Sc1cccc(Cl)c1)c(C)n2CC(=O)O with microsomal CLint of 10 µL/min/mg or above?
Result: 1
